target: human recombinant β2 adrenoceptor (Homo sapiens); construct: expressed in transfected cells; test: cell-based; type: cell-based; settings: EC50 (β1)/EC50 (β2)
measurement.name: sel (β1/β2)

Sample records with sel (β1/β2):
{"compound": "O=C(CC[N+]12CCC(CC1)[C@@H](OC[C@@](O)(c1ccccc1)C1CCCC1)C2)Nc1ccc(CNC[C@H](O)c2cc(O)cc3c2OCC(=O)N3)cc1", "readout.value": 68.8}
{"compound": "O=C1COc2c(cc(O)cc2[C@@H](O)CNCCOCc2ccc(COCC[N+]34CCC(CC3)[C@@H](OC[C@@](O)(c3ccccc3)C3CCCC3)C4)cc2)N1", "readout.value": 23.8}
{"compound": "CCC(NC[C@H](O)c1ccc(O)c2[nH]c(=O)ccc12)c1ccc(OCCC[N+]23CCC(CC2)[C@@H](OC[C@@](O)(c2ccccc2)C2CCCC2)C3)cc1 (some centres unmarked)", "readout.value": 126.7}
{"compound": "CC(NC[C@H](O)c1ccc(O)c(NC=O)c1)c1ccc(COCC[N+]23CCC(CC2)[C@@H](OC[C@@](O)(c2ccccc2)C2CCCC2)C3)cc1 (some centres unmarked)", "readout.value": 39.8}

Now consider the entry below.
Need sel (β1/β2) of CCC(NC[C@H](O)c1ccc(O)c(NC=O)c1)c1ccc(OCCC[N+]23CCC(CC2)[C@@H](OC[C@@](O)(c2ccccc2)C2CCCC2)C3)cc1.[Br-] (some centres unmarked) , thanks.
56.7

###

Here, each record is paired with measured inhibitory rate on airway resistance increase data.
tested on: bronchoconstriction response in the trachea of guinea pig induced by Mch; experiment: Bronchoconstriction induced by methacholine (Mch) in anaesthetized guinea pigs, airway dripping (Raw, Cdyn); conditions: 0.1 μg/kg airway dripping, Mch 10 μg/kg iv
Your answer is read as %, so omit the unit and give the number.

{"compound": "COc1cc(C(C)NC[C@H](O)c2ccc(O)c(CO)c2)ccc1OCCC[N+]12CCC(CC1)[C@@H](OC[C@@](O)(c1ccccc1)C1CCCC1)C2.[Br-] (stereo partly shown)", "uom": "%", "readout.value": 69.6}
{"compound": "CC(C)(Cc1ccc(OCC[N+]23CCC(CC2)[C@@H](OC[C@@](O)(c2ccccc2)C2CCCCC2)C3)cc1)NC[C@H](O)c1ccc(O)c(NC=O)c1.[Br-]", "uom": "%", "readout.value": 73.5}
{"compound": "OCc1cc([C@@H](O)CNCCOCCCOCC[N+]23CCC(CC2)[C@@H](OC[C@@](O)(c2ccccc2)C2CCCC2)C3)ccc1O.[Br-]", "uom": "%", "readout.value": 66.2}

Now consider the entry below.
Need inhibitory rate on airway resistance increase of COc1cc(NC(=O)CC[N+]23CCC(CC2)[C@@H](OC[C@@](O)(c2ccccc2)C2CCCC2)C3)c(Cl)cc1CNC[C@H](O)c1ccc(O)c(NC=O)c1.[Br-] , thanks.
74.8

###

molecular target: human recombinant M2 receptor (Homo sapiens, UniProt P08172); test: biochemical; type: binding; conditions: 3H-QNB 1.81 nmol/L, 25° C., 5 h; read-out: hM2Ki
Sequence (P08172 whole entry): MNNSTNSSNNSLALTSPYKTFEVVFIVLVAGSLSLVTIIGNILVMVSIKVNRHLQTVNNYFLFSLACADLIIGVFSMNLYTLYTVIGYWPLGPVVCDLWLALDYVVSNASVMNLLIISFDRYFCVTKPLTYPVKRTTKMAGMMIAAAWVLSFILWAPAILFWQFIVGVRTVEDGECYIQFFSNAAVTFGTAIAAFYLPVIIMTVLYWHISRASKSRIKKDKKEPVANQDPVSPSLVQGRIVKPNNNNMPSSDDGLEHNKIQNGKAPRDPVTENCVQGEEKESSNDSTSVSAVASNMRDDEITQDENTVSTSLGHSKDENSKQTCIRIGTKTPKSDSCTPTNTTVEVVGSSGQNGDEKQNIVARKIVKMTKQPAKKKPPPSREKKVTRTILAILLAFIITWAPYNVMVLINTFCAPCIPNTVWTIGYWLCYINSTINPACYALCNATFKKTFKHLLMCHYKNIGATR
measurement.name: pKi
Schema: pKi number; meaning minus log10 of the concentration expressed in molar units.

Need pKi of O=CNc1cc([C@@H](O)CNCc2c(Cl)cc(OCCC[N+]34CCC(CC3)[C@@H](OC[C@](O)(c3ccccc3)C3CCCC3)C4)cc2Cl)ccc1O.[Br-] , thanks.
8.70

###

system: heart rate of Beagle dogs; assay: Heart rate changes after iv administration in Beagle dogs; format: in vivo, Beagle dog; settings: 0.01 mg/kg iv
measurement.name: 0.5-4 h area increase under heart rate curve (%)
Your answer is read as %, so omit the unit and give the number.

Sample records with 0.5-4 h area increase under heart rate curve (%):
{"compound": "OCc1cc([C@@H](O)CNCCCCCCCCC[N+]23CCC(CC2)[C@@H](OC[C@@](O)(c2ccccc2)C2CCCC2)C3)ccc1O.[Br-]", "uom": "%", "readout.value": "−0.5"}
{"compound": "CC(NC[C@H](O)c1ccc(O)c(CO)c1)c1ccc(OCCC[N+]23CCC(CC2)[C@@H](OC[C@@](O)(c2ccccc2)C2CCCC2)C3)cc1 (stereo partly drawn)", "uom": "%", "readout.value": "−5.1"}
{"compound": "CC(NC[C@H](O)c1ccc(O)c(NC=O)c1)c1ccc(OCCC[N+]23CCC(CC2)[C@@H](OC[C@@](O)(c2ccccc2)C2CCCC2)C3)cc1.[Br-] (stereo partly drawn)", "uom": "%", "readout.value": "−2.8"}
{"compound": "OCc1cc([C@@H](O)CNCCCOc2ccc(OCCC[N+]34CCC(CC3)[C@@H](OC[C@@](O)(c3ccccc3)C3CCCC3)C4)cc2)ccc1O.[Br-]", "uom": "%", "readout.value": 6.6}
{"compound": "CC(Cc1ccc(OCCC[N+]23CCC(CC2)[C@@H](OC[C@@](O)(c2ccccc2)C2CCCC2)C3)cc1)NC[C@H](O)c1ccc(O)c2[nH]c(=O)ccc12.[Br-] (stereo partly drawn)", "uom": "%", "readout.value": 4}

Now consider the entry below.
Need 0.5-4 h area increase under heart rate curve (%) of C[N+]1(C)CCC(OC(=O)Nc2cc(CCC(=O)Nc3ccc(CNC[C@H](O)c4ccc(O)c5[nH]c(=O)ccc45)cc3)ccc2-c2ccccc2)CC1.O=C([O-])C(F)(F)F [reference compound] , thanks.
35.2

###

target: human recombinant β2 adrenoceptor (Homo sapiens, UniProt P07550); construct: expressed in transfected cells; assay: cell-based; assay type: cell-based; conditions: EC50 (β1)/EC50 (β2)
Sequence (P07550 whole entry): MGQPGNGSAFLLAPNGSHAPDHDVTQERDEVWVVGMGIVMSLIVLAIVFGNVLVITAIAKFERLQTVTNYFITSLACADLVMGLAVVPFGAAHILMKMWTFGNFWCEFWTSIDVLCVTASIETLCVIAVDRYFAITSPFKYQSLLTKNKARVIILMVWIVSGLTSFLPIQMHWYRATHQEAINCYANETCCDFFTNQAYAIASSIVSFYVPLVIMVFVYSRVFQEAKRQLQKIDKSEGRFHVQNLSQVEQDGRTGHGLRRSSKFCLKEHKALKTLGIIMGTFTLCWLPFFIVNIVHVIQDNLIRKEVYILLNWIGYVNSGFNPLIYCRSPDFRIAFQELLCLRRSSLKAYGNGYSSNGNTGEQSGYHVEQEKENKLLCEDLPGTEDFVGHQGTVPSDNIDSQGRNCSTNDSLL
Outcome: t for sel (β1/β2) of at least 90; f for anything lower.

Solved entries (count: 2):
{"compound": "Cc1cc(CNC[C@H](O)c2ccc(O)c(NC=O)c2)ccc1NC(=O)CC[N+]12CCC(CC1)[C@@H](OC[C@@](O)(c1ccccc1)C1CCCC1)C2.[Br-]", "group": "f"}
{"compound": "O=C1COc2c(cc(O)cc2[C@@H](O)CNCc2cc(Cl)c(OCCC[N+]34CCC(CC3)[C@@H](OC[C@@](O)(c3ccccc3)C3CCCC3)C4)c(Cl)c2)N1.[Br-]", "group": "t"}

Test whether the compound O=CNc1cc([C@@H](O)CNCCCC[N+]23CCC(CC2)[C@@H](OC[C@@](O)(c2ccccc2)C2CCCC2)C3)ccc1O records sel (β1/β2) of 90 or higher.
f

###

Here, each record is paired with measured liver extraction rate (ERh) data.
assay: Liver microsome metabolic stability in vitro (Beagle dog); details: Beagle dog liver microsomes

Sample records with liver extraction rate (ERh):
{"compound": "O=CNc1cc([C@@H](O)CNCCCOc2ccc(OCCC[N+]34CCC(CC3)[C@@H](OC[C@@](O)(c3ccccc3)C3CCCC3)C4)cc2)ccc1O [Compound 113]", "measurement.name": "liver extraction rate (ERh)", "readout.value": 0.96}
{"compound": "CC(NC[C@H](O)c1ccc(O)c(CO)c1)c1ccc(OCCC[N+]23CCC(CC2)[C@@H](OC[C@@](O)(c2ccccc2)C2CCCC2)C3)cc1 (stereo partly drawn) [Compound 69]", "measurement.name": "liver extraction rate (ERh)", "readout.value": 0.94}

Now consider the entry below.
Need liver extraction rate (ERh) of OCc1cc([C@@H](O)CNCCCCCCCCC[N+]23CCC(CC2)[C@@H](OC[C@@](O)(c2ccccc2)C2CCCC2)C3)ccc1O.[Br-] [Compound 7] , thanks.
0.98

###

molecular target: human recombinant β1 adrenoceptor (Homo sapiens, UniProt P08588); construct: expressed in transfected cells; test: cAMP accumulation, human recombinant β1 adrenoceptor; format: cell-based; settings: cAMP accumulation; 10 nM ICI118551 added; HEK293 cells; read-out: EC50 (β1)
Sequence (P08588 whole entry): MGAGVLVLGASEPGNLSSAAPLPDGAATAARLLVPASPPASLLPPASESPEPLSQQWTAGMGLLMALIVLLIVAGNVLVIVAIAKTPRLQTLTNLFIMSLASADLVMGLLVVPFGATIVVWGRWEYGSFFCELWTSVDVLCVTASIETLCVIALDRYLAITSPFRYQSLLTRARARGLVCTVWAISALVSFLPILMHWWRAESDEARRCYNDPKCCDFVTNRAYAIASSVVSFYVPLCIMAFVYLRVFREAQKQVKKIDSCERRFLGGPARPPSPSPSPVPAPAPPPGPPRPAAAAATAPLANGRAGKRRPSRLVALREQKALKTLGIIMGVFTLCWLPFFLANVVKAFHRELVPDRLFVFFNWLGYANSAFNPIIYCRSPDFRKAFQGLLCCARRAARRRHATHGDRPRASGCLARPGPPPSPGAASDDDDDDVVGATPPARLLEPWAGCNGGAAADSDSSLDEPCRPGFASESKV
measurement.name: EC50 (nM)
Your answer is read as nM, so omit the unit and give the number.

Need EC50 of O=CNc1cc([C@@H](O)CNCc2c(Cl)cc(OCCC[N+]34CCC(CC3)[C@@H](OC[C@](O)(c3ccccc3)C3CCCC3)C4)cc2Cl)ccc1O.[Br-] , thanks.
83

###

Here, each record is paired with measured inhibitory rate on airway resistance increase data.
system: bronchoconstriction response in the trachea of guinea pig induced by Mch; test: Bronchoconstriction induced by methacholine (Mch) in anaesthetized guinea pigs, airway dripping (Raw, Cdyn); details: 0.3 μg/kg airway dripping, Mch 10 μg/kg iv
Your answer is read as %, so omit the unit and give the number.

Sample records with inhibitory rate on airway resistance increase:
{"compound": "CC(C)(Cc1ccc(OCC[N+]23CCC(CC2)[C@@H](OC[C@@](O)(c2ccccc2)C2CCCCC2)C3)cc1)NC[C@H](O)c1ccc(O)c(NC=O)c1.[Br-] [Compound 99]", "uom": "%", "readout.value": 86.8}
{"compound": "COc1cc(NC(=O)CC[N+]23CCC(CC2)[C@@H](OC[C@@](O)(c2ccccc2)C2CCCC2)C3)c(Cl)cc1CNC[C@H](O)c1ccc(O)c(NC=O)c1.[Br-] [Compound 138]", "uom": "%", "readout.value": 88.9}
{"compound": "OCc1cc([C@@H](O)CNCCOCCCOCC[N+]23CCC(CC2)[C@@H](OC[C@@](O)(c2ccccc2)C2CCCC2)C3)ccc1O.[Br-] [Compound 48]", "uom": "%", "readout.value": 88.3}

Need inhibitory rate on airway resistance increase of COc1cc(C(C)NC[C@H](O)c2ccc(O)c(CO)c2)ccc1OCCC[N+]12CCC(CC1)[C@@H](OC[C@@](O)(c1ccccc1)C1CCCC1)C2.[Br-] (stereo partly shown) [Compound 70] , thanks.
86.5
